target: L858R/T790M/C797S triple mutant EGFR (Homo sapiens, UniProt P00533, C797S/L858R/T790M); construct: purchased Signalchem; assay: Enzymology experiment in vitro (HTRF/FRET kinase activity), L858R/T790M/C797S triple mutant EGFR; assay type: biochemical; details: HTRF KinEASE-TK, read-out: EGFR (L858R/T790M/C797S) IC50
Sequence (P00533 25-1210 T790M/C797S/L858R): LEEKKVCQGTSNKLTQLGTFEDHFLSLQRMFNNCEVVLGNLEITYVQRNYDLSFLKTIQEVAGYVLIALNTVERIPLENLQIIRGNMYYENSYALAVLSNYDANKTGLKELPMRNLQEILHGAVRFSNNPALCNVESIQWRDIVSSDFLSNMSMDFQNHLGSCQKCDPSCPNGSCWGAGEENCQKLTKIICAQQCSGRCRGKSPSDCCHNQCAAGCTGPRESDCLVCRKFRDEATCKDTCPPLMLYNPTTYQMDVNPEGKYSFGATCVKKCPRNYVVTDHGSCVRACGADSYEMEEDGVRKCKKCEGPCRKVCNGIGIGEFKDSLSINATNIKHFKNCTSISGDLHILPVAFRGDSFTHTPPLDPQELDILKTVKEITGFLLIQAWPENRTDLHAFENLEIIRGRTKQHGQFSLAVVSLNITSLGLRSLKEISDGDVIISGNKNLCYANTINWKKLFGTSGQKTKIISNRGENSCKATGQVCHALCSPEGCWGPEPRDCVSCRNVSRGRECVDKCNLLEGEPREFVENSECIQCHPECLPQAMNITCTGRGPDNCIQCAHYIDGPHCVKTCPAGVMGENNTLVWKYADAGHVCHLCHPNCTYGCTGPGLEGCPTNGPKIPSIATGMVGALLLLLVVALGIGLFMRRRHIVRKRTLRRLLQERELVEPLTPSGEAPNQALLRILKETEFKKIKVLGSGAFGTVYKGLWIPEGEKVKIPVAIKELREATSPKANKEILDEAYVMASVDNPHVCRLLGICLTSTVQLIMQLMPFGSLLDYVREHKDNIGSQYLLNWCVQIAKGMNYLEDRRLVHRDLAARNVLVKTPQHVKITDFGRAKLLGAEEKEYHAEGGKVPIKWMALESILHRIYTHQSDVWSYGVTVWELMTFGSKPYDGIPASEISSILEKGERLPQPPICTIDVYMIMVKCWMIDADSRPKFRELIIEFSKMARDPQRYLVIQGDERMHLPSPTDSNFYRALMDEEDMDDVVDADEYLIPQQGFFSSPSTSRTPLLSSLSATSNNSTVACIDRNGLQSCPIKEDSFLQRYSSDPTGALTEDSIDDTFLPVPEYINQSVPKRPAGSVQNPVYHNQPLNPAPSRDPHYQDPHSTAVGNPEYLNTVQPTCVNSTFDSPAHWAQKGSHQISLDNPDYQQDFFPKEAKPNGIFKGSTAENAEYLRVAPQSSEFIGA
Provide the reported pIC50 of each item.
Numbers only, as −log10 of the molar value.

{"columns": ["MOLECULAR STRING", "pIC50"],
 "data": [
  ["COCCN1CCN(c2cc(OC)c(Nc3ncc(Br)c(Nc4ccccc4NS(C)(=O)=O)n3)cc2-c2cnn(C)c2)CC1", 10.15]
]}

For each of the compounds below, note its pIC50.
1. COC[C@H]1CN(c2cc(OC)c(Nc3ncc(Br)c(Nc4ccc5nccnc5c4P(C)(C)=O)n3)cc2-c2cnn(C)c2)CCO1
2. CN(C)CCN1CCOc2c(Nc3ncc(Br)c(Nc4ccc5nccnc5c4P(C)(C)=O)n3)cc(-c3cnn(C)c3)cc21
3. COc1cc(N2CCN(CC3(C#N)CC3)CC2)c(-c2cnn(C)c2)cc1Nc1ncc(Br)c(Nc2ccc3nccnc3c2P(C)(C)=O)n1
4. COc1cc(N2CCO[C@H](C)C2)c(-c2cnn(C)c2)cc1Nc1ncc(Br)c(Nc2ccc3nccnc3c2P(C)(C)=O)n1
5. COc1cc(N2CCC3(CCN(CC4(C#N)CC4)CC3)CC2)c(-c2cnn(C)c2)cc1Nc1ncc(Br)c(Nc2ccc3nccnc3c2P(C)(C)=O)n1

1: 9.46; 2: 9.21; 3: 9.28; 4: 9.14; 5: 9.11

Quick note, pIC50 for `Cn1cc(-c2cc(Nc3ncc(Br)c(Nc4ccccc4P(C)(C)=O)n3)c(OCC(F)(F)F)nc2N2CCOCC2)cn1` landed at 8.95

* * *

molecular target: wild-type EGFR (Homo sapiens); construct: purchased Signalchem; assay: Enzymology experiment in vitro (HTRF/FRET kinase activity), wild-type EGFR; assay type: biochemical; settings: HTRF KinEASE-TK, read-out: EGFR (WT) IC50
Sequence (P00533 25-1210): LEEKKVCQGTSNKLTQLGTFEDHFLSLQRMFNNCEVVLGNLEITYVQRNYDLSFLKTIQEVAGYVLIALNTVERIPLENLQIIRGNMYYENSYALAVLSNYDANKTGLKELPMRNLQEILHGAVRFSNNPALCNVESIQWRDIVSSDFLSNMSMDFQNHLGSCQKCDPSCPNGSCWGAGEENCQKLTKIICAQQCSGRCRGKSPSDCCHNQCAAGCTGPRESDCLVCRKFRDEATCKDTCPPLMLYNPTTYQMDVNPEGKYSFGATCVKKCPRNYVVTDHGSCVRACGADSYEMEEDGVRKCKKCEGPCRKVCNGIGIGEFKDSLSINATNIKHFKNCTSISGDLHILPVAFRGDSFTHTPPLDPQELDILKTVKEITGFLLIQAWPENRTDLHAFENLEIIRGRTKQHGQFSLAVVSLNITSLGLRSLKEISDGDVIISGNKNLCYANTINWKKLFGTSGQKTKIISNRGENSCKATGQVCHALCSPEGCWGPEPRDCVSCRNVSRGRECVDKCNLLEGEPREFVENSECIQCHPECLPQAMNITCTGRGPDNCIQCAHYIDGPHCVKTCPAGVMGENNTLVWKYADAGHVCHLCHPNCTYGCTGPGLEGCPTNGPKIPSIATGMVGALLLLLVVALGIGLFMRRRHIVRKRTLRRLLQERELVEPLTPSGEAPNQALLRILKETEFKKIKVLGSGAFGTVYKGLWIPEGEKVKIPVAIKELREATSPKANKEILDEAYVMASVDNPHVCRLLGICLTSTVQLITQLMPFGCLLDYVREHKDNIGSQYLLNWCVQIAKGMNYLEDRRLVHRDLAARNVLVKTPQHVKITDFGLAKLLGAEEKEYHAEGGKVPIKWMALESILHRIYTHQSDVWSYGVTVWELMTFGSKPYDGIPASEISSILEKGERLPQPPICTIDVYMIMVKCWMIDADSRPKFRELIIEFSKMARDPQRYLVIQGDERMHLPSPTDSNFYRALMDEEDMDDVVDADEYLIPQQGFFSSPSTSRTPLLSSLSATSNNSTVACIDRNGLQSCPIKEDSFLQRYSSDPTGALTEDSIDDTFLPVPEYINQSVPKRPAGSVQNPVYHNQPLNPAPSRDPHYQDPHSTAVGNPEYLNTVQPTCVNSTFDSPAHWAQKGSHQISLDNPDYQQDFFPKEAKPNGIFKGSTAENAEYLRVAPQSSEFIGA
Would you mind telling me the reported IC50 of each entry?
One number for each entry, in nM.

{"columns": ["COMPOUND", "IC50 / nM"],
 "data": [
  ["COc1cc(N2CCC(N3CC(C)OC(C)C3)CC2)c(-c2cnn(C)c2)cc1Nc1ncc(Br)c(Nc2ccc3nccnc3c2P(C)(C)=O)n1 (racemic)", 2.39]
]}

Dear colleague, could you send me IC50 for each of the items below? Thanks.
1. COc1cc(N2CCOCC2)c(-c2cnn(S(=O)(=O)C3CC3)c2)cc1Nc1ncc(Br)c(Nc2ccc3nccnc3c2P(C)(C)=O)n1
2. COc1cc(N2CCC(N3CC4(CN(C)C4)C3)CC2)c(-c2cnn(C)c2)cc1Nc1ncc(Br)c(Nc2ccc3nccnc3c2P(C)(C)=O)n1
3. COc1cc(N2CCOCC2)c(-c2cnn(C)c2)cc1Nc1nccc(Nc2ccc3nccnc3c2P(C)(C)=O)n1
4. COc1cc(N2CCC3(CCN(C)CC3)CC2)c(-c2cnn(C)c2)cc1Nc1ncc(Br)c(Nc2ccc3nccnc3c2P(C)(C)=O)n1
5. COc1cc(N2CCC(C)(OC)CC2)c(-c2cnn(C)c2)cc1Nc1ncc(Cl)c(Nc2ccc3nccnc3c2P(C)(C)=O)n1

358
0.69
166
0.41
7.57

* * *

biological target: L858R/T790M/C797S triple mutant EGFR (Homo sapiens, UniProt P00533, C797S/L858R/T790M); construct: purchased Signalchem; experiment: Enzymology experiment in vitro (HTRF/FRET kinase activity), L858R/T790M/C797S triple mutant EGFR; assay type: biochemical; conditions: HTRF KinEASE-TK, read-out: EGFR (L858R/T790M/C797S) IC50
Could you please report measured pIC50 for the items listed next?
Answers are plain numbers, as −log10 of the molar value.

{"columns": ["COMPOUND", "SUBJECT OF TEST", "pIC50"],
 "data": [
  ["COc1cc(N2CCC(N3CC(C)OC(C)C3)CC2)c(-c2cnn(C)c2)cc1Nc1ncc(Br)c(Nc2ccc3nccnc3c2P(C)(C)=O)n1 (racemic)", "L858R/T790M/C797S triple mutant EGFR (Homo sapiens, UniProt P00533, C797S/L858R/T790M)", 9.22]
]}

Go through the list and state pIC50 for each entry.
1. COc1cc(N2CCN(S(=O)(=O)C3CC3)CC2)c(-c2cnn(C)c2)cc1Nc1ncc(Br)c(Nc2ccc3nccnc3c2P(C)(C)=O)n1
2. COc1cc(N2CCC3(CCN(CC(F)(F)F)CC3)CC2)c(-c2cnn(C)c2)cc1Nc1ncc(Br)c(Nc2ccc3nccnc3c2P(C)(C)=O)n1
3. COc1cc(N2CCC(OCC3CC3)CC2)c(-c2cnn(C)c2)cc1Nc1ncc(Br)c(Nc2ccc3ncccc3c2P(C)(C)=O)n1
4. COc1cc(C23CCOCC2C3)c(-c2cnn(C)c2)cc1Nc1ncc(Br)c(Nc2ccc3nccnc3c2P(C)(C)=O)n1 (stereo not drawn)
5. COc1cc(N2CCN(C3(C)CC3)CC2)c(-c2cnn(C)c2)cc1Nc1ncc(Br)c(Nc2ccc3nccnc3c2P(C)(C)=O)n1

1. 8.89
2. 8.55
3. 8.71
4. 8.91
5. 9.38

* * *

Can you tell me IC50 for the items I'm about to list?
molecular target: L858R/T790M/C797S triple mutant EGFR (Homo sapiens, UniProt P00533, C797S/L858R/T790M); construct: purchased Signalchem; test: Enzymology experiment in vitro (HTRF/FRET kinase activity), L858R/T790M/C797S triple mutant EGFR; type: biochemical; conditions: HTRF KinEASE-TK, read-out: EGFR (L858R/T790M/C797S) IC50
Give bare numbers, in nM.

{"columns": ["COMPOUND", "IC50 / nM"],
 "data": [
  ["COc1cc(N2CCC(N3CCN(C)CC3)C(F)C2)c(-c2cnn(C)c2)cc1Nc1ncc(Br)c(Nc2ccccc2N(C)S(=O)(=O)C2CC2)n1 (stereo not shown)", 0.61],
  ["COc1cc(N2C[C@H]3C[C@@H]2CO3)c(-c2cnn(C)c2)cc1Nc1ncc(Br)c(Nc2ccc3nccnc3c2P(C)(C)=O)n1", 0.56],
  ["COc1cc(N2CCOCC2)c(-c2cnn(C(F)F)c2)cc1Nc1ncc(Br)c(Nc2ccc3nccnc3c2P(C)(C)=O)n1", 0.53]
]}

// each compound listed below needs its IC50
1. COc1cc(N2CCS(=O)(=O)CC2)c(-c2cnn(C)c2)cc1Nc1ncc(Br)c(Nc2ccc3nccnc3c2P(C)(C)=O)n1
2. COc1cc(N2CCC(N3CCN(C)CC3)CC2)c(-c2cnn(C)c2)cc1Nc1ncc(Br)c(Nc2ccccc2N(C)S(=O)(=O)C2CC2)n1
3. COc1cc(N2CCN3CCCCC3C2)c(-c2cnn(C)c2)cc1Nc1ncc(Br)c(Nc2ccc3nccnc3c2P(C)(C)=O)n1 (stereo not shown)
4. COc1cc(S(=O)(=O)N(C)C)c(-c2cnn(C)c2)cc1Nc1ncc(Br)c(Nc2ccc3nccnc3c2P(C)(C)=O)n1

[0.15, 0.53, 0.12, 11.9]

* * *

molecular target: Ba/F3 L858R/T790M/C797S EGFR triple mutant cell line (Homo sapiens, UniProt P00533, T790M/C797S/L858R, cells depend on it); assay: Cell proliferation inhibition experiment (CellTiter-Glo), Ba/F3 L858R/T790M/C797S; assay type: cell-based; conditions: 72 hours, Cell Titer-Glo, read-out: Ba/F3 (L858R/T790M/C797S) IC50
Sequence (P00533 whole entry T790M/C797S/L858R): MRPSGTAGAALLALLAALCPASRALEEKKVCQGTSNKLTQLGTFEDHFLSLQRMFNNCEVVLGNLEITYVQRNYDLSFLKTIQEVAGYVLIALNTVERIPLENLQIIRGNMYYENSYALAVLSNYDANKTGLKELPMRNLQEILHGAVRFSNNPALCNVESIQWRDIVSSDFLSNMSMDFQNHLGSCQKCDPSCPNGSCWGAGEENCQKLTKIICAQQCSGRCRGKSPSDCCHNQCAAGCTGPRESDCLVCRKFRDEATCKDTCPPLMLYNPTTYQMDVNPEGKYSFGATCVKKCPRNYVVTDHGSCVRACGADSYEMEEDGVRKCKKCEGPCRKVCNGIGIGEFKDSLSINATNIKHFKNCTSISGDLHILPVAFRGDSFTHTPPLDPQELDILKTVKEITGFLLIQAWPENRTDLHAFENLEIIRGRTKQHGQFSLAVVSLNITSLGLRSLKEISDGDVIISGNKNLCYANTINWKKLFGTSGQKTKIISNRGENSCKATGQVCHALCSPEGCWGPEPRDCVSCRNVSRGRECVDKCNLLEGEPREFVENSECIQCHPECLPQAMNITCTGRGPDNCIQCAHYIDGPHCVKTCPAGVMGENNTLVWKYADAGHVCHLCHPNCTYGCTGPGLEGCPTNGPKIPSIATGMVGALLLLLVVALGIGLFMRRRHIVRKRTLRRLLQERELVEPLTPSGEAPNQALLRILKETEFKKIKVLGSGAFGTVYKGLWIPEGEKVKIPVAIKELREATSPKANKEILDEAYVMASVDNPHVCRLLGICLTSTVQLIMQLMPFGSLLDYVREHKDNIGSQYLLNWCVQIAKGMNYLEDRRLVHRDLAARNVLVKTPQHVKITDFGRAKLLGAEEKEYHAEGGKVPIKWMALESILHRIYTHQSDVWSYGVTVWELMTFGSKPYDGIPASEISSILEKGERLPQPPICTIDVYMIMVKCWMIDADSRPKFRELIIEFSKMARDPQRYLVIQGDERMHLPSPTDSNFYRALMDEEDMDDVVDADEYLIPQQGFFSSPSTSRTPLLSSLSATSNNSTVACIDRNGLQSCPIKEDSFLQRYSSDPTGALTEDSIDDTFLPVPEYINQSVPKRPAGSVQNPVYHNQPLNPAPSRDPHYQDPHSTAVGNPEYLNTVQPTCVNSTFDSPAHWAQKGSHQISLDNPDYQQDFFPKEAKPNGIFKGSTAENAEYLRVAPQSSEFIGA
Lab note: anything with GI50 below 10 nM is marked T; values at 10 nM or higher are marked F.

Some solved entries appear below for comparison.
{"columns": ["MOLECULE", "QUALITATIVE LABEL"],
 "data": [
  ["COc1cc(N2CCN(S(=O)(=O)C3CC3)CC2)c(-c2cnn(C)c2)cc1Nc1ncc(Br)c(Nc2ccc3nccnc3c2P(C)(C)=O)n1", "F"],
  ["COc1cc(N2CCOCC2)c(-c2cnn(C(F)F)c2)cc1Nc1ncc(Br)c(Nc2ccc3nccnc3c2P(C)(C)=O)n1", "F"],
  ["COc1cc(N2CCOCC2)c(-c2cnn(C)c2)cc1Nc1ncc(C)c(Nc2ccc3nccnc3c2P(C)(C)=O)n1", "F"],
  ["COc1nc(N2CCC3(CC2)COC3)c(-c2cnn(C)c2)cc1Nc1ncc(Br)c(Nc2ccc3nccnc3c2P(C)(C)=O)n1", "F"]
]}

In the record for COc1cc(C23CCOCC2C3)c(-c2cnn(C)c2)cc1Nc1ncc(Br)c(Nc2ccc3nccnc3c2P(C)(C)=O)n1 (stereo not drawn) , is GI50 less than 10 nM?
F

Hello, is GI50 of the following molecule strictly smaller than 10 nM? COc1cc(N2CCC3CCN(CC4CC4)C3C2)c(-c2cnn(C)c2)cc1Nc1ncc(Br)c(Nc2ccc3nccnc3c2P(C)(C)=O)n1 (stereo not drawn) [compound 227]
T
